# Target Or System: RSV A2_F (Human respiratory syncytial virus A, UniProt P03420)
# Construct: expressed in transfected cells; host or cells: HEK 293T/17
# Sequence (P03420 137-574): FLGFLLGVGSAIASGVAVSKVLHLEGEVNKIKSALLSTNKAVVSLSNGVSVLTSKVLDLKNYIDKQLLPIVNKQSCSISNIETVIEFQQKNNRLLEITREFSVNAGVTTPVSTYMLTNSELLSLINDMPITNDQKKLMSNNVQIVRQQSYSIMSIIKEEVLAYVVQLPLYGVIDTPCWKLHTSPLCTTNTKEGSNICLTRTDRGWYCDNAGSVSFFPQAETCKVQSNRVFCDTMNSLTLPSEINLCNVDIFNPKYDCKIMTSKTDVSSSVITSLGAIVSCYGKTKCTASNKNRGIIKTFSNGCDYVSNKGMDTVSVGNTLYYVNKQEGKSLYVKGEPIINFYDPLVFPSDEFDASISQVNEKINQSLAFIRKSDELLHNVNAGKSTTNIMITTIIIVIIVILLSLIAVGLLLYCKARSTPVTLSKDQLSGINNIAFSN
# Sequence (P03420 26-109): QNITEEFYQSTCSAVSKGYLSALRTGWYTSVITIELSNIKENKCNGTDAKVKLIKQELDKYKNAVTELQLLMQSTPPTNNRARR
# Test Method Notes: RSV fusion assay (luciferase reporter, HEK 293T/17 cells transfected with A2_F)
# Assay type: cell-based
# Study Conditions: Fusion activity IC50 μM, HEK 293T/17 cells, 24 hr
Consider the following compounds; for each one, report its IC50.
Numbers only, in µM.

Known IC50 results, listed for orientation:
compound="NC1CCN(c2ncc(CN3C(=O)C4(CC4)c4ccc(F)cc43)c(NCCN3CCOCC3)n2)C1 (stereo not shown) [Compound 3]" quantity_name=IC50 unit_of_measure=µM val=4.18
compound="NC1CCN(c2ncc(CN3C(=O)C4(CCC4)c4ccc(F)cc43)c(N[C@H]3CC[C@H](O)CC3)n2)C1 (stereo partly shown) [Compound 20]" quantity_name=IC50 unit_of_measure=µM val=1.95
compound="NC1CCN(c2ncc(CN3C(=O)C4(CC4)c4ccc(F)cc43)c(NCCCCO)n2)CC1 [Compound 24]" quantity_name=IC50 unit_of_measure=µM val=0.695
compound="NC1CCN(c2ncc(CN3C(=O)C4(CC4)c4ccc(F)cc43)c(NC3CCOCC3)n2)C1 (stereo not shown) [Compound 10]" quantity_name=IC50 unit_of_measure=µM val=0.184
compound="CC(C)CNc1nc(N2CCOCC2)ncc1CN1C(=O)C2(CC2)c2ccc(F)cc21 [Compound 8]" quantity_name=IC50 unit_of_measure=µM val=8.53
compound="CC(C)CCNc1nc(N2CCC(N)C2)ncc1CN1C(=O)C2(CC2)c2ccc(F)cc21 (stereo not shown) [Compound 1]" quantity_name=IC50 unit_of_measure=µM val=0.708

Hey, quick one: what's IC50 for each of these?
1. NC1CCN(c2ncc(CN3C(=O)C4(CC4)c4ccc(F)cc43)c(OCCCF)n2)C1 (stereo not shown) [Compound 22]
2. CC(C)CCNc1nc(N2CCCC2)ncc1CN1C(=O)C2(CC2)c2ccc(F)cc21 [Compound 7]
3. CC(=O)N1CCN(c2nc(N3CCC(N)C3)ncc2CN2C(=O)C3(CC3)c3ccc(F)cc32)CC1 (stereo not shown) [Compound 17]

Response:
1: 0.951; 2: 1.99; 3: 5.46

###

# Test Method Notes: Liver microsomal stability, human
# Assay type: in vitro ADME
# Study Conditions: both sexes, pooled liver microsomes, pH 7.4, 0.5 mg/mL protein, read-out: Liver Microsomal Stability (T1/2/mins) human
Quantity Name: half-life at 3 μM (h)
Give bare numbers, in h.

Request: Quick one: half-life at 3 μM of NC1CCN(c2ncc(CN3C(=O)C4(CC4)c4ccc(F)cc43)c(N[C@H]3CC[C@H](O)CC3)n2)C1 (stereo partly shown) ?
Response: 2.82

###

# Test system: P-gp (MDR1), human
# Test Method Notes: in vitro
# Format: in vitro ADME
# Study Conditions: dog, MDCK-MDR1
Quantity Name: Papp B→A at 60 min, 10 μM (×10⁻⁶ cm/s)
Numbers only, in ×10⁻⁶ cm/s.

Request: I have this compound here, NC1CCN(c2ncc(CN3C(=O)C4(CC4)c4ccc(F)cc43)c(N[C@H]3CC[C@H](O)CC3)n2)C1 (stereo partly shown) [Compound 2] , and I need its recorded Papp B→A at 60 min, 10 μM.
Response: 7.99

###

# Target Or System: RSV A2_F (Human respiratory syncytial virus A)
# Construct: expressed in transfected cells; host or cells: HEK 293T/17
# Test Method Notes: RSV fusion assay (luciferase reporter, HEK 293T/17 cells transfected with A2_F)
# Format: cell-based
# Study Conditions: Fusion activity IC50 μM, HEK 293T/17 cells, 24 hr
Quantity Name: IC50

molecule="CS(=O)(=O)N1CCN(c2nc(N3CCC(N)C3)ncc2CN2C(=O)C3(CC3)c3ccc(F)cc32)CC1 (stereo not shown) [Compound 14]" val="1.2 µM"
molecule="CC(C)CNc1nc(N2CCC(N)C2)ncc1CN1C(=O)C2(CC2)c2ccc(F)cc21 (stereo not shown) [Compound 5]" val="0.655 µM"
molecule="CCCNc1nc(N2CCC(N)C2)ncc1CN1C(=O)C2(CC2)c2ccc(F)cc21 (stereo not shown) [Compound 28]" val="1.23 µM"

# ---- query molecule ----
Request: IC50 lookup needed for NCCNc1ncc(CN2C(=O)C3(CC3)c3ccc(F)cc32)c(NCCCCO)n1 [Compound 25] , thanks.
Response: 0.212 µM
